# measurementTarget: PI3K δ (Homo sapiens (Human))
# Sequence (O00329 whole entry): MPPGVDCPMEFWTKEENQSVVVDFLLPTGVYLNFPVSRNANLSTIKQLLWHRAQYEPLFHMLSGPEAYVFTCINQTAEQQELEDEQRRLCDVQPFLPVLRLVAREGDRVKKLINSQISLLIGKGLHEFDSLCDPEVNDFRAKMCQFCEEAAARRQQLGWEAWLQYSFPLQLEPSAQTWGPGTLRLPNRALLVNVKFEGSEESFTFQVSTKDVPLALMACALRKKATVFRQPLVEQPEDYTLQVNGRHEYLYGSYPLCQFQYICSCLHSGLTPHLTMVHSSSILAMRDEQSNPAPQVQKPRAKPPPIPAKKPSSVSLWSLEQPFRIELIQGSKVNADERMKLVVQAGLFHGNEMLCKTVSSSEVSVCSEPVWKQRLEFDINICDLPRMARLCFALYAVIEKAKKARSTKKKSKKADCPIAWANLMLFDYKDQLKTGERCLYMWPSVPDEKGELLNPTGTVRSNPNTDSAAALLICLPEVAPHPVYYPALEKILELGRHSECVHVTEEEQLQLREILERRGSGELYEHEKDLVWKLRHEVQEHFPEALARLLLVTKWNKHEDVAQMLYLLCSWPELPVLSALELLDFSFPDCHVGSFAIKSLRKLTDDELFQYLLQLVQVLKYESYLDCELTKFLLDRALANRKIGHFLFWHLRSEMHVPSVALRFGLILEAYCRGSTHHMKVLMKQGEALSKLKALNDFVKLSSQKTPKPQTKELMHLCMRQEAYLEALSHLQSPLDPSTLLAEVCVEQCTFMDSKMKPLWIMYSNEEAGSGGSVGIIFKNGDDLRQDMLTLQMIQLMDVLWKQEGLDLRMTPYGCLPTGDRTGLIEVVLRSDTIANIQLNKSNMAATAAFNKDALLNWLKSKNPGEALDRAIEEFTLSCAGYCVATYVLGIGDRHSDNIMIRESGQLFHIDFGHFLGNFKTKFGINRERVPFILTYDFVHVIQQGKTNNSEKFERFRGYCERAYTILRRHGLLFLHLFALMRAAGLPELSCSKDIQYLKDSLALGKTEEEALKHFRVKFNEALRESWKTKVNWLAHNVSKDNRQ
# Sequence (P27986 whole entry partner): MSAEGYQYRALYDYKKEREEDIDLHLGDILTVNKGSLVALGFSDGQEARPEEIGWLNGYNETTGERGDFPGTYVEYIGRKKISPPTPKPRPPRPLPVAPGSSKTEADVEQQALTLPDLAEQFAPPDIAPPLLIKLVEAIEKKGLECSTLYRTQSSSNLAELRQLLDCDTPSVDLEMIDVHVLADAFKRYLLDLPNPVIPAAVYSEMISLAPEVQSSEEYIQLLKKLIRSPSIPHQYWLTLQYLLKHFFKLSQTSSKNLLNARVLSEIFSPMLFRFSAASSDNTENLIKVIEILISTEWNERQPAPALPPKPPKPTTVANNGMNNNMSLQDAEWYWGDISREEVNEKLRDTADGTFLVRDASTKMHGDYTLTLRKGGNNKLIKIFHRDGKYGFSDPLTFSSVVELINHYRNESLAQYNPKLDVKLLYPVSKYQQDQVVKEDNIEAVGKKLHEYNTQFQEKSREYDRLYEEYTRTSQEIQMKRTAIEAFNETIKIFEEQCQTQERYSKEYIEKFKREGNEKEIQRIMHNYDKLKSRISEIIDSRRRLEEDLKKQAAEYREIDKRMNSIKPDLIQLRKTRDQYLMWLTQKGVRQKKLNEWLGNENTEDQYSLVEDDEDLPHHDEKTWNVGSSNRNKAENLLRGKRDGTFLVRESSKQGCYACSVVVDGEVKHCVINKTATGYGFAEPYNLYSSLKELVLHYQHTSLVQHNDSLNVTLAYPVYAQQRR
endpoint: IC50

Field: example entries. Status: answers known.
{"compound": "CC(C)N1CCN(c2cnc3ccc(-c4ccc5oc(N)nc5c4)nc3n2)CC1", "measurementTarget": "PI3K δ (Homo sapiens (Human))", "valueObserved": "< 10 µM"}
{"compound": "Nc1nc2cc(-c3ccc4ncc(-c5cccnc5)n4c3)ccc2o1", "measurementTarget": "PI3K δ (Homo sapiens (Human))", "valueObserved": "< 0.1 µM"}
{"compound": "C[C@@H]1CN(C(=O)c2cnc3ccc(-c4ccc5oc(N)nc5c4)cn23)C[C@H](C)O1", "measurementTarget": "PI3K δ (Homo sapiens (Human))", "valueObserved": "> 10 µM"}
{"compound": "Nc1noc2ccc(-c3ccc4nccc(-c5ccncc5)c4c3)cc12", "measurementTarget": "PI3K δ (Homo sapiens (Human))", "valueObserved": "> 10 µM"}
{"compound": "C[C@H]1CN(C2CN(c3cnc4ccc(-c5ccc6oc(N)nc6c5)nc4c3)C2)CCN1", "measurementTarget": "PI3K δ (Homo sapiens (Human))", "valueObserved": "< 1 µM"}
{"compound": "Nc1nc2cc(-c3ccc4ncc(N5CC(N6CCNCC6)C5)nc4n3)ccc2o1", "measurementTarget": "PI3K δ (Homo sapiens (Human))", "valueObserved": "> 10 µM"}

List reported IC50 for each of these compounds:
1. Nc1nc2cc(-c3ccc4nccc(-c5cn[nH]c5)c4c3)ccc2o1
2. Nc1nc2cc(-c3ccc4ncc(N5CC(C(=O)N6CCOCC6)C5)nc4c3)ccc2o1 [drawing 359]
3. CC(=O)N1CCN(C(=O)c2cnc3ccc(-c4ccc5oc(N)nc5c4)cn23)CC1
4. Nc1nc2cccc(-c3ccc4nccc(-c5ccncc5)c4c3)c2s1
5. Nc1nc2cc(-c3ccc4ncc(NC5CCOCC5)nc4c3)ccc2o1
6. Nc1nc2cc(-c3cnc4ccc(N5CCOCC5)nc4c3)ccc2o1
7. Nc1nc2cc(-c3ccc4ncc(N5CCC(N6CCOCC6)CC5)nc4c3)ccc2o1

A.
1: < 0.1 µM; 2: < 1 µM; 3: > 10 µM; 4: < 1 µM; 5: < 1 µM; 6: > 10 µM; 7: < 1 µM
